Taken from patent US7687546B2.

Test system: middle cerebral artery occlusion and reperfusion model
Assay: Cerebral infarction model: middle cerebral artery occlusion and reperfusion (infarct area, neurological symptoms, motor function)
Format: in vivo, rats (Crj: Wistar strain)
Details: rats, single i.v. dose 3 mg/kg; rotor rod 14 rotations per minute, maximum 1 minute; average of 10 animals
The entries below are paired with their reported Improvement of motor function (time stayed on rotor rod: seconds).
Note: a bare number is incomplete; add the unit.

Example entries and their recorded answers appear below.
C[N+](C)(C)CCOc1ccc(C(=O)[O-])c(O)c1O [Compound 32] | 53.5 s
C[N+](C)(C)CC(O)Oc1ccc(O)c(C(=O)[O-])c1 (stereo not drawn) [Compound 56] | 45.4 s

stdin: Recorded Improvement of motor function (time stayed on rotor rod: seconds) of C[N+](C)(C)CCOc1cc(C(=O)[O-])c(O)cc1O [Compound 30] , please.
stdout: 51.4 s

stdin: Recorded Improvement of motor function (time stayed on rotor rod: seconds) for C[N+](C)(C)CCOc1ccc(S(=O)(=O)[O-])cc1 [Compound 60] , please?
stdout: 44.2 s

stdin: Could you share which Improvement of motor function (time stayed on rotor rod: seconds) value was measured for CC1=NN(c2ccccc2)C(=O)C1 [Edaravone, reference compound] ?
stdout: 42.6 s

stdin: # query: Improvement of motor function (time stayed on rotor rod: seconds) of entry C[N+](C)(C)CCCOc1cc(S(=O)(=O)[O-])ccc1O [Compound 77]
stdout: 49.3 s

---

System: middle cerebral artery occlusion and reperfusion model
Experiment: Cerebral infarction model: middle cerebral artery occlusion and reperfusion (infarct area, neurological symptoms, motor function)
Type: in vivo, rats (Crj: Wistar strain)
Conditions: rats, single i.v. dose 3 mg/kg; rotor rod 14 rotations per minute, maximum 1 minute; average of 10 animals
Value type: Improvement of motor function (time stayed on rotor rod: seconds)
Write the number in s without appending the unit.

C[N+](C)(C)CCOc1ccc(O)c(S(=O)(=O)[O-])c1 | 49.6
CC[N+](CC)(CC)CCOc1ccc(S(=O)(=O)[O-])c(O)c1 | 48.8
C[N+](C)(C)CCOc1ccc(C(=O)[O-])cc1 [Compound 3, 4-(2-trimethylammonio-ethoxy)-benzoate] | 50.1
C[N+](C)(C)CCOc1cc(O)cc(C(=O)[O-])c1O | 53.1
C[N+](C)(C)CCOc1cc(C(=O)O)ccc1O.[Cl-] | 47.5
COc1ccc(C(=O)[O-])cc1OCC[N+](C)(C)C | 42.4

stdin: Recorded Improvement of motor function (time stayed on rotor rod: seconds) of C[N+](C)(C)CCOc1cc(C(=O)[O-])cc(O)c1O , please.
stdout: 60.0

stdin: So what's the measured Improvement of motor function (time stayed on rotor rod: seconds) for this one? C[N+](C)(C)CCOc1ccc(O)c(C(=O)[O-])c1
stdout: 51.6

stdin: Reported Improvement of motor function (time stayed on rotor rod: seconds) for C[N+](C)(C)CCOc1ccc(O)c(O)c1C(=O)[O-] : what is it?
stdout: 52.1
